experiment: Intrinsic clearance in human liver microsomes; type: ADME, Microsome
Listed here: items and their measured CLint scaled.
Numbers only; they are read as mL/min/kg.

Name the reported CLint scaled value associated with the molecule Cc1c(C)n(C[C@H]2C[C@@H]2C)c2c(OCc3ccc(F)cc3)nncc12
16

Next record, please: CCc1cccc(C)c1CNc1cc(C(N)=O)cn2c(C)c(C)nc12
6.5

Next record, please: Cc1cccc(C)c1CNc1cc(C(=O)NCCO)cn2c(C)c(C)nc12
1.3

---
Name the reported CLint scaled value associated with the molecule Cc1cccc(C)c1CNc1nccn2c(C)c(C)cc12
11

Next record, please: Cc1cccc(C)c1CNc1nccc2c1cc(C)n2C
3.8

Next record, please: Cc1cccc(C)c1CNc1nc(N2CCOCC2=O)cc2c(C)c(C)n(CCO)c12
6.9

Next record, please: Cc1cccc(C)c1CNc1cccc2c1nc(C)n2C
8

Next record, please: Cc1cccc(C)c1CNc1nccc2c1nc(C)n2C
3.4

Next record, please: Cc1cccc(C)c1CNc1ncnc2c(C)c(C)[nH]c12
2.8

Next record, please: Cc1nc2c(OCc3ccccc3)cccn2c1CC#N
8

====

target: CYP3A4 (Homo sapiens); assay: Inhibition of CYP3A4 assessed as ratio of IC50 at 0 mins to IC50 at 10 mins using diethoxyfluorescein substrate; format: ADME; conditions: probe diethoxyfluorescein; read-out: Ratio IC50
Sequence (P08684 whole entry): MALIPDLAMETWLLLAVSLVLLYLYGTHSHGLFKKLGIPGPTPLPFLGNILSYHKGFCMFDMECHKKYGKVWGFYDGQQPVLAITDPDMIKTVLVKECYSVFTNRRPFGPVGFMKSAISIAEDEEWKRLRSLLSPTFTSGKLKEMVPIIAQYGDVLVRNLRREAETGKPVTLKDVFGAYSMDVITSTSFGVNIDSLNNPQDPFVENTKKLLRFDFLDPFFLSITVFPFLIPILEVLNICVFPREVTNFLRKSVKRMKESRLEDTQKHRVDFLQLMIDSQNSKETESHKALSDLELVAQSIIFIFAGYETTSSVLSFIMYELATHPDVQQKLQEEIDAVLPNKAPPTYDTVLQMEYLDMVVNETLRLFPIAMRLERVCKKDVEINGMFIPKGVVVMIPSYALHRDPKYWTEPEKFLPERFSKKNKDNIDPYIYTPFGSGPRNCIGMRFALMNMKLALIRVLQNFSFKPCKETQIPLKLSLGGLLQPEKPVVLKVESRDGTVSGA
endpoint: IC50 shift
Write no unit; give the number alone.

Name the reported IC50 shift value associated with the compound Cc1c(C)n(C[C@H]2C[C@@H]2C)c2c(OCc3ccc(F)cc3)nncc12
1.2

====

assay: Inhibition of H+/K+ ATPase at pH 7.4
Listed here: items and their measured pIC50.
Write no unit; give the number alone.

Worked set:
Name the reported pIC50 value associated with the compound C=CCn1c(C)c(C)c2cc(-n3ccccc3=O)nc(NCc3c(C)cccc3C)c21
7.5

Next record, please: Cc1cccc(C)c1CNc1nccn2c(C)c(C)cc12
7.6

Next record, please: Cc1cccc(C)c1CNc1nccc2c(C)c(C)[nH]c12
9.4

---
Name the reported pIC50 value associated with the compound Cc1cccc(C)c1CNc1ccnc2c1nc(C)n2C
4.5

Next record, please: Cc1cccc(C)c1CNc1cccn2c(C)ncc12
4.1

Next record, please: Cc1cccc(C)c1CNc1ccnn2c(C)c(C)nc12
6.1

Next record, please: Cc1cccc(C)c1CNc1nccc2cc[nH]c12
6.8

Next record, please: Cc1cccc(C)c1CNc1nccn2c(C)c(C)nc12
7.1

Next record, please: Cc1cccc(C)c1COc1cccn2c(C)c(C)nc12
7.6

Next record, please: Cc1c(C)n(C[C@H]2C[C@@H]2C)c2c(OCc3ccc(F)cc3)nncc12
6.8

Next record, please: Cc1[nH]c2c(NCc3ccccc3)nccc2c1C
8.4

====

target: Cytochrome P450 2D6 (Homo sapiens, UniProt P10635)
Sequence (P10635 whole entry): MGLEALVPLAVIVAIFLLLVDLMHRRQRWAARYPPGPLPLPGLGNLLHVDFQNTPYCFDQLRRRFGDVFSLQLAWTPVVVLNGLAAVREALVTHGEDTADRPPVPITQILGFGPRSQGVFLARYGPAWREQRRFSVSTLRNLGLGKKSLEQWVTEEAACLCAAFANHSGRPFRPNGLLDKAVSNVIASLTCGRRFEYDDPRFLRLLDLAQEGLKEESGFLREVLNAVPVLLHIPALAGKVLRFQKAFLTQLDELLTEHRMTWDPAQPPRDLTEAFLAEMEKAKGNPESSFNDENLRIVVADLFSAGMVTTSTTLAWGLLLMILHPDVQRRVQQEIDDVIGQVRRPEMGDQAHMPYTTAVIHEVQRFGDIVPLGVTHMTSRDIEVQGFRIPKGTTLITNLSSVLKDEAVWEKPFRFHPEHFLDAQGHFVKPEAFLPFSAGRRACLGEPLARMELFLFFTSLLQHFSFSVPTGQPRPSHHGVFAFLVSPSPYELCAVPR
Listed here: items and their measured IC50.

Worked set:
Name the reported IC50 value associated with the compound CCn1c(C)c(C)c2cc(-n3ccccc3=O)nc(NCc3c(C)cccc3C)c21
18 µM

Next record, please: Cc1cccc(C)c1CNc1nc(N2CCOCC2=O)cc2c(C)c(C)n(CCO)c12
36 µM

Next record, please: C=CCn1c(C)c(C)c2cc(-n3ccccc3=O)nc(NCc3c(C)cccc3C)c21
26 µM

Next record, please: Cc1cccc(C)c1CNc1nccc2c1cc(C)n2C
< 0.1 µM

As a next step, examine the compound that follows.
Name the reported IC50 value associated with the compound Cc1cccc(C)c1CNc1nc(N2CCOCC2=O)cc2c(C)c(C)[nH]c12
25 µM

====

experiment: Chromatographic hydrophobicity index at pH 7.4 by fast gradient HPLC; format: physicochemical; details: buffer
endpoint: chromatographic logD
Write no unit; give the number alone.

Name the reported chromatographic logD value associated with the compound C=CCn1c(C)c(C)c2cc(-n3ccccc3=O)nc(NCc3c(C)cccc3C)c21
4.06

Next record, please: Cc1cccc(C)c1CNc1cc(C(=O)NCCO)cn2c(C)c(C)nc12
2.14

Next record, please: Cc1cccc(C)c1CNc1nccn2c(C)c(C)cc12
3.54

Next record, please: Cc1cccc(C)c1CNc1nccc2c(C)c(C)[nH]c12
2.29

---
Name the reported chromatographic logD value associated with the compound Cc1cccc(C)c1CNc1nc(N2CCCC2=O)cc2c(C)c(C)[nH]c12
3.77

Next record, please: Cc1cccc(C)c1CNc1nc(N2CCOCC2=O)cc2c(C)c(C)[nH]c12
2.83

Next record, please: Cc1cccc(C)c1CNc1nc(-c2cccc(=O)[nH]2)cc2c(C)c(C)[nH]c12
4.12

Next record, please: Cc1cccc(C)c1CNc1ccnc2c1nc(C)n2C
2.27

====

molecular target: Cytochrome P450 3A4 (Homo sapiens, UniProt P08684); test: Inhibition of CYP3A4 using 7-benzyloxyquinoline substrate; assay type: ADME
Sequence (P08684 whole entry): as the sequence (P08684 whole entry) above
endpoint: pIC50
Just so you know, pIC50 here is -log10 of the concentration in molar units; reply with that number alone.

Worked set:
Name the reported pIC50 value associated with the compound Cc1cccc(C)c1CNc1nccc2c1cc(C)n2C
5.37

Next record, please: Cc1cccc(C)c1CNc1nc(-c2cccc(=O)[nH]2)cc2c(C)c(C)[nH]c12
5.66

---
Name the reported pIC50 value associated with the compound Cc1cccc(C)c1CNc1nc(N2CCNC2=O)cc2c(C)c(C)[nH]c12
5.80

Next record, please: Cc1nc2c(OCc3ccccc3)cccn2c1CC#N
4.92

Next record, please: Cc1cccc(C)c1COc1cccn2c(C)c(C)nc12
4.74

Next record, please: Cc1cccc(C)c1CNc1nc(N2CCCC2=O)cc2c(C)c(C)[nH]c12
5.74

Next record, please: Cc1cccc(C)c1CNc1nccn2c(C)c(C)cc12
5.80

Next record, please: Cc1cccc(C)c1CNc1nccc2c(C)c(C)[nH]c12
5.02

Next record, please: Cc1c(C)n(C[C@H]2C[C@@H]2C)c2c(OCc3ccc(F)cc3)nncc12
4.85

Next record, please: Cc1cccc(C)c1CNc1nc(-n2ccccc2=O)cc2c(C)c(C)[nH]c12
4.05

Next record, please: Cc1cccc(C)c1CNc1cccc2c1nc(C)n2C
5.05

Next record, please: Cc1cccc(C)c1CNc1nc(N2CCOCC2=O)cc2c(C)c(C)[nH]c12
4.66

====

target: Cytochrome P450 2C9 (Homo sapiens, UniProt P11712)
Sequence (P11712 whole entry): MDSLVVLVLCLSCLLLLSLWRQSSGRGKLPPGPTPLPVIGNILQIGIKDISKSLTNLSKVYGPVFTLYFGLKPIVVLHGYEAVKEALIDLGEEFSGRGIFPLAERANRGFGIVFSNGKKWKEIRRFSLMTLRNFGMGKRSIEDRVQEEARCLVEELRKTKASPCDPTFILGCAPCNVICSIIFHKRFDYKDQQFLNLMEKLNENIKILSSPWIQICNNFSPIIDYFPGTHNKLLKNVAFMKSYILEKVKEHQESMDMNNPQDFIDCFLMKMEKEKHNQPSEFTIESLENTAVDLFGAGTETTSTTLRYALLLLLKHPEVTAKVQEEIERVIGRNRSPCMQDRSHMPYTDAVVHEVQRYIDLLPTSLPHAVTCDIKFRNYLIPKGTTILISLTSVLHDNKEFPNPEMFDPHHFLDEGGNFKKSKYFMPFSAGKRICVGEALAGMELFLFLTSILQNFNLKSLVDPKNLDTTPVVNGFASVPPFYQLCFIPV
pIC50: −log10 of the molar value.
Label condition met for high-side pIC50 (at or above 5) and condition not met for low-side pIC50 (below it).

Does the reported pIC50 for Cc1cccc(C)c1CNc1ncnc2c(C)c(C)[nH]c12 fall at or above the 5 mark?
condition not met

Next record, please: Cc1c(C)n(C[C@H]2C[C@@H]2C)c2c(OCc3ccc(F)cc3)nncc12
condition met

Next record, please: Cc1cccc(C)c1CNc1nccn2c(C)c(C)cc12
condition not met

Next record, please: CCn1c(C)c(C)c2cc(-n3ccccc3=O)nc(NCc3c(C)cccc3C)c21
condition met

====

Target protein (sequence): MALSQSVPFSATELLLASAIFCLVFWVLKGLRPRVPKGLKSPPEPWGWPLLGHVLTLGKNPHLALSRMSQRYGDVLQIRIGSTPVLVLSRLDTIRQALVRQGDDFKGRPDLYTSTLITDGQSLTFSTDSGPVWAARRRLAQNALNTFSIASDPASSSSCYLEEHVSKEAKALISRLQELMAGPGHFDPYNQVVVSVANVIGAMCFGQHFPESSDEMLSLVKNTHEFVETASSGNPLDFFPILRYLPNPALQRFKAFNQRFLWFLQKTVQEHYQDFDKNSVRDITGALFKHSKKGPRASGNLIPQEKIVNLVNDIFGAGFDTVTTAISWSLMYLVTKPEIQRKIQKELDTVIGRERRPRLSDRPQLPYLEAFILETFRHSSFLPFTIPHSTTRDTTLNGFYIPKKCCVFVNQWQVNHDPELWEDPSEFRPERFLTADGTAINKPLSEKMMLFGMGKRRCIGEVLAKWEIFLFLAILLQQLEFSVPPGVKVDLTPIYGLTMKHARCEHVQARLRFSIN
Listed here: items and their measured IC50.

Name the reported IC50 value associated with the compound Cc1cccc(C)c1CNc1nc(-n2ccccc2=O)cc2c(C)c(C)n(CCO)c12
> 100 µM

Next record, please: Cc1cccc(C)c1CNc1ncnc2c(C)c(C)[nH]c12
> 100 µM

---
Name the reported IC50 value associated with the compound Cc1cccc(C)c1CNc1nc(N2CCOCC2=O)cc2c(C)c(C)n(CCO)c12
> 100 µM

====

assay: Intrinsic clearance in human liver microsomes; assay type: ADME, Microsome
endpoint: CLint scaled (mL/min/kg)
Numbers only; they are read as mL/min/kg.

Worked set:
Name the reported CLint scaled value associated with the molecule CCn1c(C)c(C)c2cc(-n3ccccc3=O)nc(NCc3c(C)cccc3C)c21
22

Next record, please: C=CCn1c(C)c(C)c2cc(-n3ccccc3=O)nc(NCc3c(C)cccc3C)c21
13

---
Name the reported CLint scaled value associated with the molecule Cc1cccc(C)c1CNc1nc(N2CCOCC2=O)cc2c(C)c(C)[nH]c12
1.6

Provenance of the data: ChEMBL document CHEMBL1154377
